Biological target: human orexin 2 receptor (Homo sapiens, UniProt O43614)
Construct: expressed in transfected cells
Sequence (O43614 whole entry): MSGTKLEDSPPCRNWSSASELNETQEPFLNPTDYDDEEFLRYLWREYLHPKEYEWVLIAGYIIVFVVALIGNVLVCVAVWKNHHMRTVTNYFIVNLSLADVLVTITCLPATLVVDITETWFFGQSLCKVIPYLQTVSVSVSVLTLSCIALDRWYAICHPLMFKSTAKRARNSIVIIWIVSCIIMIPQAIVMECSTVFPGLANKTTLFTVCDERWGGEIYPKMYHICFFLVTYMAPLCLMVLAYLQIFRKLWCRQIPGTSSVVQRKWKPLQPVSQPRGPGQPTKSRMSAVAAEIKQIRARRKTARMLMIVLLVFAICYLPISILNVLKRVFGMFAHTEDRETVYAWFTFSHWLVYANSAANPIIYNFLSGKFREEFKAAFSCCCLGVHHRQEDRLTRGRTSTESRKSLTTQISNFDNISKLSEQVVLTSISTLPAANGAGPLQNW
Assay: Radioligand binding assay ([3H]-SB649868 competition), human orexin 2 receptor
Conditions: radioligand [3H]-SB649868; read-out: Binding hOx2R Kd
measurement kind: pKd
# reply with the number alone; pKd is -log10 of concentration in mol/L

Consider the following illustrative entries.
compound: O=C1OCC2(CCN(c3cnc4ccccc4n3)CC2)N1Cc1cccc2[nH]ccc12
target or test system: human orexin 2 receptor (Homo sapiens, UniProt O43614)
pKd: 6.54
//
compound: COc1cccc(-c2ocnc2CN2CCNC3(CCN(c4nccc(C)n4)CC3)C2=O)c1
target or test system: human orexin 2 receptor (Homo sapiens, UniProt O43614)
pKd: 6.79
//
compound: COc1cc(C)nc(N2CCC3(CCN(Cc4ccccc4-c4nc(C)no4)C3=O)CC2)n1
target or test system: human orexin 2 receptor (Homo sapiens, UniProt O43614)
pKd: 6.48
//
compound: Cc1ccc(C)c(CN2C(=O)CCC23CCN(c2nc(C)cc(C)n2)CC3)c1
target or test system: human orexin 2 receptor (Homo sapiens, UniProt O43614)
pKd: 6.82
//
compound: Cc1cc(C)nc(N2CCC3(CCC(=O)N3Cc3cccc4[nH]ccc34)CC2)n1
target or test system: human orexin 2 receptor (Homo sapiens, UniProt O43614)
pKd: 7.52

# value lookup — system human orexin 2 receptor (Homo sapiens, UniProt O43614), readout pKd, item COc1cc(C)nc(N2CCC3(CCN(Cc4n[nH]c5ccccc45)C3=O)CC2)n1
6.16

Now the compound Cc1cc(C)nc(N2CCC3(CC2)NCCN(Cc2nn(C)cc2-c2cccc(OC(C)C)c2)C3=O)n1
8.15

Now the compound Cc1ccc(C)c(CN2C(=O)CCC23CCN(c2cnc4ccccc4n2)CC3)c1
7.11

----------
Molecular target: human orexin 2 receptor (Homo sapiens)
Assay: Calcium accumulation in cells (FLIPR), antagonism of orexin A, human orexin 2 receptor
Settings: calcium accumulation, antagonism of orexin A, Cheng-Prusoff corrected; read-out: FLIPR hOx2R Ki
Measured pKi by item
# reply with the number alone; pKi is -log10 of concentration in mol/L

compound: COc1cccc(-c2nn(C)nc2CN2CCC3(CCN(c4nc(C)cc(OC)n4)C3)C2=O)c1 (stereo not shown)
target or test system: human orexin 2 receptor (Homo sapiens)
pKi: 8.55
//
compound: COc1cc(N2CCC3(CCN(Cc4c[nH]c5ccccc45)C3=O)C2)n2nccc2n1 (stereo not shown)
target or test system: human orexin 2 receptor (Homo sapiens)
pKi: 5.99
//
compound: COc1cc(C)nc(N2CC[C@]3(CCCN(Cc4c[nH]c5ccccc45)C3=O)C2)n1 (single isomer, unassigned)
target or test system: human orexin 2 receptor (Homo sapiens)
pKi: 8.72
//
compound: O=C1N(Cc2c[nH]c3ccccc23)CCC12CCCN(c1cnc3ccccc3n1)C2 (stereo not shown)
target or test system: human orexin 2 receptor (Homo sapiens)
pKi: 6.19
//
compound: CCc1ccnc(N2CCC3(CC2)OCCN(Cc2c[nH]c4ccccc24)C3=O)n1
target or test system: human orexin 2 receptor (Homo sapiens)
pKi: 6.60

Can you look up the measured pKi of COc1cccc(-c2sc(C)nc2CN2CCNC3(CCN(c4nc(C)cc(C)n4)CC3)C2=O)c1 for me?
8.00

Now the compound COc1ccnc(N2CCC3(CCCN(Cc4ccccc4-c4nc(C)no4)C3=O)C2)n1 (stereo not shown)
6.66

Now the compound COc1cccc(-c2ocnc2CN2CCNC3(CCN(c4nccc(OC)n4)CC3)C2=O)c1
7.19

Now the compound Cc1cc(C)nc(N2CCC3(CC2)OCCN(Cc2nn(C)nc2-c2ccccc2)C3=O)n1
6.44

----------
Target: human orexin 2 receptor (Homo sapiens)
Construct: expressed in transfected cells
Test: Radioligand binding assay ([3H]-SB649868 competition), human orexin 2 receptor
Details: radioligand [3H]-SB649868; read-out: Binding hOx2R Kd
// classify: if (Kd < 50 nM) 1 else -1

A selection of reference data follows.
compound: COc1cc(-c2nn(C)nc2CN2CCNC3(CCN(c4nc(C)cc(C)n4)CC3)C2=O)ccn1 [Example 1.74]
class: -1
//
compound: Cc1cc(C)nc(N2CCC3(CC2)NCCN(Cc2nn(C)cc2-c2cccc(N4CCOCC4)c2)C3=O)n1 [Example 1.73]
class: -1
//
compound: Cc1cc(C)nc(N2CCC3(CC2)NCCN(Cc2nn(C)nc2-c2cccc(OC(C)C)c2)C3=O)n1 [Example 1.79]
class: 1
//
compound: CC(=O)c1cccc(-c2cn(C)nc2CN2CCNC3(CCN(c4nc(C)cc(C)n4)CC3)C2=O)c1 [Example 1.48]
class: -1
//
compound: Cc1cc(C)nc(N2CCC3(CC2)NCCN(Cc2nn(C)nc2-c2ccc4c(c2)OCCO4)C3=O)n1 [Example 1.80]
class: 1

# evaluate next
Determine if COc1cccc(-c2nn(C)nc2CN2CCNC3(CCN(c4nc(C)cc(C)n4)CC3)C2=O)c1 [Example 1.5] shows Kd strictly lower than 50 nM.
1

----------
Target: human orexin 1 receptor (Homo sapiens)
Construct: expressed in transfected cells
Assay: Calcium accumulation in cells (FLIPR), antagonism of orexin A, human orexin 1 receptor
Format: cell-based
Conditions: measured at a concentration of 10 μM of compound; read-out: FLIPR hOx1R % inhibition
Measured inhibition at 10 µM by item
API: value field is a number in %; no unit string.

compound: Cc1cc(C)nc(N2CCC3(CC2)OCCN(Cc2nn(C)nc2-c2ccccc2)C3=O)n1
unit tag: %
inhibition at 10 µM: 16

compound: Cc1cc(C)nc(N2CCC3(CC2)NCCN(Cc2nn(C)cc2-c2cccc(-n4nc(C)cc4C)c2)C3=O)n1
unit tag: %
inhibition at 10 µM: 13

Below: the item to evaluate.
Can you look up the measured inhibition at 10 µM of Cc1cnc(N2CCC3(CCN(Cc4c[nH]c5ccccc45)C3=O)C2)s1 (stereo not shown) for me?
67

----------
Target: human orexin 1 receptor (Homo sapiens)
Sequence (O43613 1-425): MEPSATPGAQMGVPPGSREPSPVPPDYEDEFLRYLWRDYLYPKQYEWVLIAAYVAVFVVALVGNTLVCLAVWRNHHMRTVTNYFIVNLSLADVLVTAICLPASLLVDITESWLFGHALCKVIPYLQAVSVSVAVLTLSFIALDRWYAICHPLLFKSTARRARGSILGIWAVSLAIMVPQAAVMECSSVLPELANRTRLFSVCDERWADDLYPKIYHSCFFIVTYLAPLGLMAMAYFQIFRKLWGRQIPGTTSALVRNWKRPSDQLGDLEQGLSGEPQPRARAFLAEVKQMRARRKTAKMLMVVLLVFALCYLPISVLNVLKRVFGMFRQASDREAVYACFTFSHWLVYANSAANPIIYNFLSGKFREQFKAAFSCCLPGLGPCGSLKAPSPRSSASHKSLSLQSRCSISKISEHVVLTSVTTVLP
Assay: Calcium accumulation in cells (FLIPR), antagonism of orexin A, human orexin 1 receptor
Details: calcium accumulation, antagonism of orexin A, Cheng-Prusoff corrected; read-out: FLIPR hOx1R Ki
Procedure: Calcium Accumulation in Cells (FLIPR): Cells expressing human orexin 1 or human orexin 2 receptors, were seeded at 8,000 cells/well in 384 well black-walled clear bottom, poly-D-lysine coated plates. […] On the day of the experiment, the cells seeded in black plates were treated with assay buffer containing the Ca^2+ sensitive fluorescent dye Fluo-4-AM (2 μM), and probenecid (0.1 mM). […] Fluorescence measurements were then continued every 1 S for 120 S followed by every 4 S for 240 S. […]
pKi: −log10 of the molar value.
Decision: pKi >= 6 yields y, all other cases yield n.

Does COc1cccc(-c2ocnc2CN2CCNC3(CCN(c4nc(C)cc(OC)n4)CC3)C2=O)c1 have a reported pKi of at least 6?
y

Now the molecule Cc1cc(C)nc(N2CCC3(CC2)NCCN(Cc2nn(C)cc2-c2cccc(-n4cccn4)c2)C3=O)n1
n

Now the molecule Cc1cnc(N2CCC3(CC2)OCCN(Cc2c[nH]c4ccccc24)C3=O)nc1C
n

----------
Target: human orexin 2 receptor (Homo sapiens)
Construct: expressed in transfected cells
Experiment: Radioligand binding assay ([3H]-SB649868 competition), human orexin 2 receptor
Conditions: radioligand [3H]-SB649868; read-out: Binding hOx2R Kd
Please assign a class to every record based on measured Kd, with ranges range 1 (below 30 nM), range 2 (30 nM to below 200 nM), range 3 (200 nM or more)

A selection of reference data follows.
compound: Cc1cc(C)nc(N2CCC3(CC2)NCCN(Cc2nn(C)cc2-c2cccc(C(C)C)c2)C3=O)n1
class: range 1
//
compound: COc1cccc(-c2oc(C)nc2CN2CCNC3(CCN(c4nc(C)cc(OC)n4)CC3)C2=O)c1
class: range 1
//
compound: Cc1ccnc(N2CCC3(CC2)OCCN(Cc2c[nH]c4ccccc24)C3=O)n1
class: range 2
//
compound: Cc1cc(C)nc(N2CCC3(CC2)NCCN(Cc2nn(C)nc2-c2cccc(N4CCOCC4)c2)C3=O)n1
class: range 3
//
compound: Cc1ccc(C)c(CN2C(=O)COCC23CCN(c2cnc4ccccc4n2)CC3)c1
class: range 2

Just checking, what class would you give O=C1N(Cc2c[nH]c3ccccc23)CCCC12CCN(c1nc3ccccc3[nH]1)C2 (stereo not shown) here?
range 1

Now the compound Cc1cc(C)nc(N2CCC3(CC2)OCCN(Cc2c[nH]c4ccccc24)C3=O)n1
range 2

Now the compound COc1cc(C)nc(N2CC[C@]3(CCCN(Cc4c[nH]c5ccccc45)C3=O)C2)n1 (single isomer, unassigned)
range 1

Now the compound COc1cc(C)nc(N2CCC3(CC2)NCCN(Cc2c[nH]c4ccccc24)C3=O)n1
range 1

Now the compound Cc1cc(C)nc(N2CCC3(CCN(Cc4c[nH]c5ccccc45)C3=O)CC2)n1
range 3

Now the compound COc1cccc(-c2oc(C)nc2CN2CCNC3(CCN(c4nc(C)cc(C#N)n4)CC3)C2=O)c1
range 2

Now the compound CCC(=O)c1cccc(-c2cn(C)nc2CN2CCNC3(CCN(c4nc(C)cc(C)n4)CC3)C2=O)c1
range 1

The measurements presented in this section are drawn from patent US20120165331A1.
